So I've got a bunch of compounds here, and I need their TGI values.
test system: HCC-2998 colon; experiment: NCI tumour cell line growth inhibition, 48 h

TGI measured on O=C1c2ccccc2-c2ccc(N(Cc3ccc(Br)cc3)Cc3ccc(Br)cc3)cc21 = > 100 µM

TGI measured on CCOC(=O)C12CN(C34CC5CC(CC(C5)C3)C4)CC(C(=O)OCC)(C1=O)C(c1ccccc1)OC2c1ccccc1 (stereo unspecified) = > 100 µM

TGI measured on O=C1Nc2ccccc2/C1=C\c1c(Cl)[nH]c2ccccc12 = 1.68 µM

TGI measured on COC(=O)c1c(OC(C)=O)ccc2c1c1c(n2Cc2ccccc2)C(=O)c2ccccc2C1=O = 30.3 µM

TGI measured on COc1ccc2[nH]c3c(c2c1)CCc1ccccc1-3 = > 100 µM

TGI measured on O=[N+]([O-])c1ccc2nc(/C=C(\O)c3ccccc3)c(/C=C(\O)c3ccc(Cl)cc3)nc2c1 = > 100 µM

TGI measured on c1ccc(COc2ccc(Nc3ncnc4ccc(-c5ccco5)cc34)cc2)cc1 = > 25 µM

TGI measured on O=C(NCCS(=O)(=O)N1C(=O)C2CCCN2C(=O)[C@@H]1Cc1ccccc1)OCc1ccccc1 (stereo partly specified) = 73.2 µM

TGI measured on COc1ccccc1NS(=O)(=O)c1cc(C(C)(C)C)ccc1OCCOc1ccc(C(C)(C)C)cc1S(=O)(=O)Nc1ccccc1OC = > 100 µM

TGI measured on O=C1c2cccnc2-c2nc(-c3ccccc3)cc3c2c1nc1ccccc13 = 18.5 µM

TGI measured on Oc1ccc(-c2nc(-c3ccc(F)cc3)c(-c3ccncc3)[nH]2)cc1 = > 100 µM

---

system: HOP-62 NSCLC; assay: NCI tumour cell line growth inhibition, 48 h
ENDPOINT_LABEL: TGI

TGI measured on Cc1[nH]c2ncn(N)c(=N)c2c1Cc1ccccc1 = > 100 µM

TGI measured on COc1ccc(C2C(Cl)C(=O)N2NC(=O)c2ccc(NC(C)=O)cc2)cc1OC (stereo not given) = > 100 µM

TGI measured on Cc1ccc2c(c1)C(=O)c1ccc(C)nc1C2=O = > 100 µM

TGI measured on COC(=O)C1(Cc2ccccc2C)Cc2ccc(C)cc2C1=O (stereo not given) = > 100 µM

TGI measured on CSc1ccc(C=C2N=C(c3ccccc3)N(c3cc(C(=O)c4ccccc4)ccc3N3C(=O)/C(=C/c4ccc(SC)cc4)N=C3c3ccccc3)C2=O)cc1 = > 100 µM

TGI measured on COc1ccc2[nH]c3c(c2c1)CCc1ccccc1-3 = > 100 µM

TGI measured on CC(=O)NNc1nc(C)c(C(/C=C/c2ccc3c(c2)OCO3)=N/NC(=O)c2ccncc2)s1 = > 100 µM

TGI measured on C1=C(N2CCOCC2)/C(=C2\SC(=Nc3ccccc3)C(=Nc3ccccc3)N2c2ccccc2)CC1 = > 100 µM

TGI measured on O=C1/C(=C/c2ccccc2Cl)COc2ccccc21 = 35 µM

TGI measured on C[C@@H](Oc1cc(-n2cnc3ccc(OCC4CCN(C)CC4)cc32)sc1C(N)=O)c1ccccc1C(F)(F)F = 3.11 µM

TGI measured on CC(C)c1cc(C(C)C)c(P2(=O)CC3C(Cl)(Cl)C3(C)C2)c(C(C)C)c1 (stereo not given) = 29 µM

TGI measured on COc1ccc(Br)c(CCCCC(=O)O)c1 = > 100 µM

TGI measured on CC(C)Cn1cnnc1NS(=O)(=O)c1cc(C(=O)NN)c(Cl)cc1S = > 10 µM

TGI measured on C/C(O)=C/c1nc2sc(C)c(C)c2c(=O)s1 = > 100 µM

TGI measured on CCOC(=O)C1=C(O)CSC1=Nc1ccc(N=C2SCC(O)=C2C(=O)OCC)cc1 = 65.9 µM
